Entries and their MIC
- System: STAPHYLOCOCCUS EPIDERMIDIS 3519
- Type: cell-based
- Assay Conditions: S. epidermidis 3519; BHI agar; unit assumed
# unit: µg/mL | format: bare number

>  <Molecule>
CC[C@H]1OC(=O)[C@H](C)C(=O)[C@H](C)[C@@H](O[C@@H]2O[C@H](C)C[C@H](N(C)C)[C@H]2O)[C@](C)(OC)C[C@@H](C)C2=N[C@H](COCc3ccnc4ccccc34)CN3C(=O)O[C@@]1(C)[C@H]3[C@H]2C [Example 85]

>  <Result Unit>
µg/mL

>  <MIC>
0.2

$$$$
>  <Molecule>
CCC1OC(=O)C(C)C(=O)C(C)C(OC2OC(C)CC(N(C)C)C2O)C(C)(OC)CC(C)C2=NCC(C)(CN(C)Cc3ccccc3)N3C(=O)OC1(C)C3C2C (stereo not drawn) [Example 134]

>  <Result Unit>
µg/mL

>  <MIC>
0.78

$$$$

From here, focus on the item given below.
Find MIC (STAPHYLOCOCCUS EPIDERMIDIS 3519) for the entry CC[C@H]1OC(=O)[C@H](C)C(=O)[C@H](C)[C@@H](O[C@@H]2O[C@H](C)C[C@H](N(C)C)[C@H]2O)[C@](C)(OC)C[C@@H](C)C2=N[C@H](CCOCc3ccccc3)CN3C(=O)O[C@@]1(C)[C@H]3[C@H]2C [Example 92] 0.39

====

Items are presented alongside their recorded MIC.
- System: STREPTOCOCCUS PYOGENES PIU 2548
- Experiment Description: In vitro antibacterial activity, MIC, BHI agar dilution
- Type: cell-based
- Assay Conditions: S. pyogenes PIU 2548, unit assumed
Give the value in µg/mL but do not write µg/mL after it.

>  <Molecule>
CC[C@H]1OC(=O)[C@H](C)C(=O)[C@H](C)[C@@H](O[C@@H]2O[C@H](C)C[C@H](N(C)C)[C@H]2O)[C@](C)(OC)C[C@@H](C)C2=NC[C@@H](Cc3ccccc3)N3C(=O)O[C@@]1(C)[C@H]3[C@H]2C

>  <MIC (µg/mL)>
0.39

$$$$
>  <Molecule>
CC[C@H]1OC(=O)[C@H](C)C(=O)[C@H](C)[C@@H](O[C@@H]2O[C@H](C)C[C@H](N(C)C)[C@H]2O)[C@](C)(OC)C[C@@H](C)C2=NC[C@@H](CCCc3ccccc3)N3C(=O)O[C@@]1(C)[C@H]3[C@H]2C

>  <MIC (µg/mL)>
0.39

$$$$
>  <Molecule>
CC[C@H]1OC(=O)[C@H](C)C(=O)[C@H](C)[C@@H](O[C@@H]2O[C@H](C)C[C@H](N(C)C)[C@H]2O)[C@](C)(OC)C[C@@H](C)C2=N[C@H](CN3CCN(C)CC3)CN3C(=O)O[C@@]1(C)[C@H]3[C@H]2C

>  <MIC (µg/mL)>
3.1

$$$$

// fetch STREPTOCOCCUS PYOGENES PIU 2548 MIC for CCC1OC(=O)C(C)C(=O)C(C)C(OC2OC(C)CC(N(C)C)C2O)C(C)(OC)CC(C)C2=NC(COCc3cc(OC)cc(OC)c3)CN3C(=O)OC1(C)C3C2C (stereo not shown) 0.2

====

- Test system: ESCHERICHIA COLI H560
- Experiment Description: In vitro antibacterial activity, MIC, BHI agar dilution
- Type: cell-based
- Assay Conditions: E. coli H560, unit assumed
Assay Readout: MIC (µg/mL)
Kindly answer with a numeric value in µg/mL, unit omitted.

>  <Compound>
CC[C@H]1OC(=O)[C@H](C)C(=O)[C@H](C)[C@@H](O[C@@H]2O[C@H](C)C[C@H](N(C)C)[C@H]2O)[C@](C)(OC)C[C@@H](C)C2=NC(COCc3ccccc3)C(COCc3ccccc3)N3C(=O)O[C@@]1(C)[C@H]3[C@H]2C (stereo partly drawn)

>  <MIC (µg/mL)>
25

$$$$

Proceeding to the next compound to report its MIC.
Test system ESCHERICHIA COLI H560; read-out MIC; what value for CCC1OC(=O)C(C)C(=O)C(C)C(OC2OC(C)CC(N(C)C)C2O)C(C)(OC)CC(C)C2=NC(CN)CN3C(=O)OC1(C)C3C2C (stereo not drawn) ? 6.2

====

- System: STAPHYLOCOCCUS AUREUS CMX 642A
- Experiment Description: In vitro antibacterial activity, MIC, BHI agar dilution
- Assay type: cell-based
- Assay Conditions: S. aureus CMX 642A, unit assumed
Assay Readout: MIC

Which MIC reading was recorded for the compound CC[C@H]1OC(=O)[C@H](C)C(=O)[C@H](C)[C@@H](O[C@@H]2O[C@H](C)C[C@H](N(C)C)[C@H]2O)[C@](C)(OC)C[C@@H](C)C2=NC3CN(CCc4ccccc4[N+](=O)[O-])CC3N3C(=O)O[C@@]1(C)[C@H]3[C@H]2C (stereo partly shown) ? 0.39 µg/mL

====

- System: STREPTOCOCCUS PYOGENES EES61
- Experiment Description: In vitro antibacterial activity, MIC, BHI agar dilution
- Assay type: cell-based
- Assay Conditions: S. pyogenes EES61, unit assumed
Assay Readout: MIC (µg/mL)
Unit µg/mL implied. Number only.

Fill blank: measured MIC of the compound `CC[C@H]1OC(=O)[C@H](C)C(=O)[C@H](C)[C@@H](O[C@@H]2O[C@H](C)C[C@H](N(C)C)[C@H]2O)[C@](C)(OC)C[C@@H](C)C2=NC[C@H](COCc3ccccc3)N3C(=O)O[C@@]1(C)[C@H]3[C@H]2C` is ____. 0.01

Thanks! And `CC[C@H]1OC(=O)[C@H](C)C(=O)[C@H](C)[C@@H](O[C@@H]2O[C@H](C)C[C@H](N(C)C)[C@H]2O)[C@](C)(OC)C[C@@H](C)C2=NC[C@H](CCCc3ccccc3)N3C(=O)O[C@@]1(C)[C@H]3[C@H]2C` ? 0.02

Then CC[C@H]1OC(=O)[C@H](C)C(=O)[C@H](C)[C@@H](O[C@@H]2O[C@H](C)C[C@H](N(C)C)[C@H]2O)[C@](C)(OC)C[C@@H](C)C2=NC3CN(CCc4ccc(N)cc4)CC3N3C(=O)O[C@@]1(C)[C@H]3[C@H]2C (stereo partly shown) ? 0.02

====

The entries below are paired with their reported MIC.
- Tested on: KLEBSIELLA PNEUMONIAE ATCC 8045
- Experiment Description: In vitro antibacterial activity, MIC, BHI agar dilution
- Type: cell-based
- Assay Conditions: K. pneumoniae ATCC 8045, unit assumed

Below, each entry is followed by its recorded MIC result.
>  <Compound>
CC[C@H]1OC(=O)[C@H](C)C(=O)[C@H](C)[C@@H](O[C@@H]2O[C@H](C)C[C@H](N(C)C)[C@H]2O)[C@](C)(OC)C[C@@H](C)C2=NC3CN(CCc4ccc(NC(C)=O)cc4)CC3N3C(=O)O[C@@]1(C)[C@H]3[C@H]2C (some centres unmarked)

>  <System>
KLEBSIELLA PNEUMONIAE ATCC 8045

>  <Observed>
> 100 µg/mL

$$$$
>  <Compound>
CC[C@H]1OC(=O)[C@H](C)C[C@H](C)[C@@H](O[C@@H]2O[C@H](C)C[C@H](N(C)C)[C@H]2O)[C@](C)(OC)C[C@@H](C)C2=NCCN3C(=O)O[C@@]1(C)[C@H]3[C@H]2C

>  <System>
KLEBSIELLA PNEUMONIAE ATCC 8045

>  <Observed>
> 100 µg/mL

$$$$

Query: MIC; subject: `CC[C@H]1OC(=O)[C@H](C)C(=O)[C@H](C)[C@@H](O[C@@H]2O[C@H](C)C[C@H](N(C)C)[C@H]2O)[C@](C)(OC)C[C@@H](C)C2=N[C@@H]3COC[C@@H]3N3C(=O)O[C@@]1(C)[C@H]3[C@H]2C` > 100 µg/mL

`CC[C@H]1OC(=O)[C@H](C)C(=O)[C@H](C)[C@@H](O[C@@H]2O[C@H](C)C[C@H](N(C)C)[C@H]2O)[C@](C)(OC)C[C@@H](C)C2=N[C@H](CCOCc3ccccc3)CN3C(=O)O[C@@]1(C)[C@H]3[C@H]2C` , same question. > 100 µg/mL

What do you have for `CC[C@H]1OC(=O)[C@H](C)C(=O)[C@H](C)[C@@H](O[C@@H]2O[C@H](C)C[C@H](N(C)C)[C@H]2O)[C@](C)(OC)C[C@@H](C)C2=NC[C@H](Cc3ccc(NC(=O)OCc4ccccc4)cc3)N3C(=O)O[C@@]1(C)[C@H]3[C@H]2C` ? > 100 µg/mL

Now this one: CC[C@H]1OC(=O)[C@H](C)C(=O)[C@H](C)[C@@H](O[C@@H]2O[C@H](C)C[C@H](N(C)C)[C@H]2O)[C@](C)(OC)C[C@@H](C)C2=NC3CN(CCc4ccccc4[N+](=O)[O-])CC3N3C(=O)O[C@@]1(C)[C@H]3[C@H]2C (some centres unmarked) > 100 µg/mL

Thanks! And `CC[C@H]1OC(=O)[C@H](C)C(=O)[C@H](C)[C@@H](O[C@@H]2O[C@H](C)C[C@H](N(C)C)[C@H]2O)[C@](C)(OC)C[C@@H](C)C2=NC[C@H](COCc3ccccc3)N3C(=O)O[C@@]1(C)[C@H]3[C@H]2C` ? 25 µg/mL

Same lookup for C#CCN1CC2N=C3[C@H](C)C[C@@](C)(OC)[C@H](O[C@@H]4O[C@H](C)C[C@H](N(C)C)[C@H]4O)[C@@H](C)C(=O)[C@@H](C)C(=O)O[C@H](CC)[C@@]4(C)OC(=O)N(C2C1)[C@@H]4[C@H]3C (some centres unmarked) , please. > 100 µg/mL
